- Measurement target: T1, TDP-217 peptide (human)
- T1 construct: 8-mer of human TDP-43; same ELISA method as for the biotinylated 15-mers
- T1 peptide: VMDVFIPK
- Method notes: indirect ELISA, 8-mer peptide library
Measure: binding result

Below, each entry is followed by its recorded binding result result.
ACI-7062-410H3-Ab1 (antibody, IgG1, V domains shown, also called 410H3B9; clone 7) VH: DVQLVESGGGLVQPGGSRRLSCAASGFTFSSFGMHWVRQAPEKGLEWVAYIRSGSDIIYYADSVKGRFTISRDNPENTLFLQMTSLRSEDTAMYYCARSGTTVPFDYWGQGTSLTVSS VL: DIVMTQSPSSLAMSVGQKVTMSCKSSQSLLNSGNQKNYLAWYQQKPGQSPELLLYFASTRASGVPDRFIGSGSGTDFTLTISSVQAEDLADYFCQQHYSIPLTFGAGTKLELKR; no binding
ACI-7062-412E12-Ab1 (antibody, IgG1, V domains shown, also called 412E12A2; clone 10) VH: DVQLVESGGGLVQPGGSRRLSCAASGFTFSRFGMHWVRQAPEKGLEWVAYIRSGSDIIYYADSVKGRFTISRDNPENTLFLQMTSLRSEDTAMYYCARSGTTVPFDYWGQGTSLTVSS VL: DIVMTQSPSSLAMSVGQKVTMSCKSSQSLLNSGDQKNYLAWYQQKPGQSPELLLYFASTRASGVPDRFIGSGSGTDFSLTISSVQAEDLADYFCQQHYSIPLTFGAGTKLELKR; no binding
ACI-7062-416A11-Ab1 (antibody, IgG2a, V domains shown, also called 416A11B3; clone 18) VH: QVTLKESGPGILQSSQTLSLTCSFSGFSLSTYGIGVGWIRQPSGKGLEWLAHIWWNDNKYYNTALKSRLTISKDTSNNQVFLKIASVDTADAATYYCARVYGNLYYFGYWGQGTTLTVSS VL: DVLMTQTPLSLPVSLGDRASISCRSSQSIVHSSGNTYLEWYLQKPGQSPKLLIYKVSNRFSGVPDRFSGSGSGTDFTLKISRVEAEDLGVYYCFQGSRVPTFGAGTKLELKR; no binding
ACI-7062-406E3-Ab1 (antibody, IgG2a, V domains shown, also called 406E3D5; clone 5) VH: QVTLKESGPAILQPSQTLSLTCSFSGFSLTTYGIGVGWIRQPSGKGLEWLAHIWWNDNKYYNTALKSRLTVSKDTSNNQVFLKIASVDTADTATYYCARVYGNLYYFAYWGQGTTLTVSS VL: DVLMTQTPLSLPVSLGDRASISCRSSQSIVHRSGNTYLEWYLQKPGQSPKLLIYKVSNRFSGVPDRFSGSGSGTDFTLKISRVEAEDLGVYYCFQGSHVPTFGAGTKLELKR; no binding

Okay, now this binder:
Query: Supply binding result value. Item: ACI-7062-412A7-Ab1 (antibody, IgG2b, V domains shown, also called 412A7B7; clone 9) VH: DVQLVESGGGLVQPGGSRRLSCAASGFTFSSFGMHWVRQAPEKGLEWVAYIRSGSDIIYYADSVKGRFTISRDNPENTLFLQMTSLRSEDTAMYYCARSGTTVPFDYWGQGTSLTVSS VL: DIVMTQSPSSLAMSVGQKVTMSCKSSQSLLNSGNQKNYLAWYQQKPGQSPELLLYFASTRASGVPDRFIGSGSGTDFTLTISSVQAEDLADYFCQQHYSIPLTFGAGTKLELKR
Reply: no binding
